Biological target: A3G-CTD2* (catalytically inactive), MST construct E259A (human) (UniProt Q9HC16)
Sequence (Q9HC16 191-384 E259A): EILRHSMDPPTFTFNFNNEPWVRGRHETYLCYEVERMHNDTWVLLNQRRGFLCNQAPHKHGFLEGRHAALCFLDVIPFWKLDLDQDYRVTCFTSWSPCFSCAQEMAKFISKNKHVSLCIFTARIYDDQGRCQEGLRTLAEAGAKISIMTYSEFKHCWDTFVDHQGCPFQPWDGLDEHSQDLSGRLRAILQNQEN
Assay: MST
Details: N at position 6 = 2'-deoxy-zebularine (replaces target C); hydrated to 4-(R)-hydroxy-3,4-dihydro form in the active enzyme; MST: 20 mM Bis-Tris pH 6.5, 100 mM NaCl, 1 mM DTT, 0.002% Tween 20, 50 nM protein, RED-tris-NTA dye, 23 C; NMR inhibition: 50 mM NaPO4 pH 6.5, 100 mM NaCl …
Outcome measure: Kd (µM)

INSERT INTO assay_data (sequence_content, target, scale_unit, readout_value) VALUES
  ('AATCCNAAA [5''-AATCCdZAAA (dZ-ssDNA inhibitor)]', 'A3G-CTD2* (catalytically inactive), MST construct E259A (human) (UniProt Q9HC16)', 'µM', 14.3);
